system: OVCAR-3 ovarian; assay: NCI tumour cell line growth inhibition, 48 h
OUTCOME MEASURE: TGI

COMPOUND | DATA VALUE
COC(=O)[C@]12CCC(=O)N1[C@H](C(=O)O)Cc1c2[nH]c2ccccc12 | > 100 µM
OCC(CO)CC1COc2ccccc2O1 (stereo unspecified) | > 10 µM
CN1C(C(=O)Nc2ccccn2)=C(O)c2ccccc2S1(=O)=O | > 100 µM

Item COc1cc(SC)ccc1C(=O)N1CCCC(C)C1 (stereo unspecified) : provide TGI
> 100 µM

Consider the compound `O=C(/C=C/c1cccs1)Nc1ncc(Cc2ccccc2F)s1` . State its measured TGI.
0.671 µM

Answer with the recorded TGI of `Cc1ccc(Nc2ccnc(Nc3cccc(C(N)=O)c3)n2)cc1O` only.
> 25 µM

Output TGI of `CCn1c(-c2cc3ccccc3cc2OC(=O)c2ccccc2)n[nH]c1=S`
> 50 µM
